# Test system: Fibroblast
# assay.details: Incucyte cell viability with human fibroblast; also: unitless GR value; below 1 slowed growth and below 0 cell loss
# Type: toxicity, cell-based
# applied.conditions: 6 h, 10 µM, compound concentration 10 uM, replicate number 1
Please provide measured Growth Rate for the entries that follow.
Answers are plain numbers.

Known results for molecules:
{"chemical.smiles": "CCOC(=O)c1ncn2c1[C@@H]1CCCN1C(=O)c1cc(OC)ccc1-2", "Growth Rate": 0.02}
{"chemical.smiles": "Cc1cc(OC2CCS(=O)(=O)CC2)cc(C)c1-c1cccc(COc2ccc(C(=O)O)c(F)c2)c1", "Growth Rate": 0.86}
{"chemical.smiles": "CC[C@]1(C)C[C@@H](OC(=O)CSc2nnc(N)[nH]2)[C@@]2(C)[C@H](C)CC[C@@]3(CCC(=O)[C@H]32)[C@@H](C)[C@@H]1O", "Growth Rate": -0.17}

# get_value(readout='Growth Rate', item= `CO[C@@H](C)CN1CC[C@]2(C)c3cc(O)ccc3C[C@H]1C2(C)C.Cl` ) 0.93

----------
# Tested on: Fibroblast
# assay.details: Incucyte cell viability with human fibroblast; also: unitless GR value; below 1 slowed growth and below 0 cell loss
# Type: toxicity, cell-based
# applied.conditions: 12 h, 10 µM, compound concentration 10 uM, replicate number 1
Output TRUE for records whose Growth Rate is lower than 0.7, FALSE for records at or above 0.7.

{"compound": "CN[C@@H]1CC[C@@H](c2ccc(Cl)c(Cl)c2)c2ccccc21.Cl", "label.class": "TRUE"}
{"compound": "C=CC(=O)Nc1ccc2[nH]c(=O)n(C3CCN(Cc4ccc(-c5ccc6c(c5)NC(=O)CO6)cc4)CC3)c2c1", "label.class": "FALSE"}
{"compound": "N#Cc1ccc(COc2ccc(Br)cc2CNCCO)cn1.O=CO", "label.class": "FALSE"}

// switching to the query compound
Given the entry `C=CC(=O)Nc1ccc(C(=O)Nc2n[nH]c3c2CN(C(=O)N[C@H](CN(C)C)c2ccccc2)C3(C)C)cc1` , would its reported Growth Rate be below 0.7? TRUE

----------
# Test system: U2OS
# assay.details: Incucyte cell viability with U2OS; also: unitless GR value; below 1 slowed growth and below 0 cell loss
# Assay type: toxicity, cell-based
# applied.conditions: human, 24 h, 10 µM, compound concentration 10 uM, replicate number 1
recorded.endpoint: Growth Rate

Known results for compounds:
{"chemical.smiles": "CC(=O)N1CCN([C@H]2CCC[C@@H](NC(=O)c3cc4c(F)ccc(C)c4[nH]3)C2)CC1.O=C(O)C(F)(F)F", "Growth Rate": 0.99}
{"chemical.smiles": "Cc1cn(CCN2CCN(c3ccccc3-c3cc(C#N)cc(C(=O)NCCCN4CCCC4)c3)CC2)c2ccccc12", "Growth Rate": -0.72}
{"chemical.smiles": "COc1cc(N2CCN(C)CC2)ccc1Nc1nccc(-c2cn(C)c3cnccc23)n1", "Growth Rate": 0.75}
{"chemical.smiles": "CC[C@H](CO)Nc1nc(Nc2cccc(-c3ccccn3)c2)c2ncn(C(C)C)c2n1.Cl.O", "Growth Rate": 0.76}

# get_value(readout='Growth Rate', item= `COc1cc(CN(CCN)C(=O)N[C@@H](C)c2ccccc2)ccc1OCc1ccccc1.Cl` ) 0.79

----------
# Test system: HEK-293T
# assay.details: Incucyte cell viability with HEK293T; also: unitless GR value; below 1 slowed growth and below 0 cell loss
# Type: toxicity, cell-based
# applied.conditions: human, 6 h, 10 µM, compound concentration 10 uM, replicate number 2
Classify by Growth Rate. Ranges: b0: < -0.08; b1: ≥ -0.08 and < 0.5; b2: ≥ 0.5

Before answering, review these 8 worked examples.
{"molecule": "NC(=O)c1cc2c(-c3ccc(C(=O)NCc4ccnc(Cl)c4)s3)cccc2s1", "label.class": "b0"}
{"molecule": "CN(C)C/C=C/C(=O)Nc1cccc(C(=O)Nc2ccc(Nc3nccc(-c4cccnc4)n3)cc2)c1", "label.class": "b0"}
{"molecule": "COCCN1CCN(CCn2ccc(Nc3ncc4c(n3)-c3c(nn(C)c3-c3ccccc3)C[C@H]4C)n2)CC1", "label.class": "b0"}
{"molecule": "COc1cc(C(C)C)c(Oc2cnc(NC(CO)CO)nc2N)cc1I", "label.class": "b2"}
{"molecule": "COc1ccc(CSc2nnc(-c3ccc4ncsc4c3)o2)cc1C(F)(F)F", "label.class": "b1"}
{"molecule": "C[C@@H](COCCC(=O)N1CCN(c2ncc(C(F)(F)F)cn2)CC1)Nc1cn[nH]c(=O)c1C(F)(F)F", "label.class": "b2"}
{"molecule": "CN1C(=O)Cc2ccc(-c3ccc(C[C@@H](C#N)NC(=O)[C@@H]4N[C@H]5CC[C@@H]4C5)c(F)c3)cc21", "label.class": "b2"}
{"molecule": "Cc1c(-c2cc(-c3ccccc3Cl)no2)cnn1C1CCNCC1.Cl", "label.class": "b0"}

// switching to the query molecule
Class? Entry: `N#Cc1ccc(C#CC[C@@H](C#N)NC(=O)[C@@H]2CCCCN2)cc1F` b2
